- test name: Phase 1 drug-drug interaction study: single-dose pemigatinib PK alone or with itraconazole or rifampin
- conditions: Cohort 2: 13.5 mg pemigatinib alone or with rifampin 600 mg QD; geometric mean

# compound structure, Cmax (nM)
data = [
    ("CCN1C(=O)N(c2c(F)c(OC)cc(OC)c2F)Cc2cnc3[nH]c(CN4CCOCC4)cc3c21", 66.9),
]

###

- test name: Phase I dose escalation and dose expansion study, observed PK in cancer patients
- Format: in vivo
- conditions: human, plasma, multiple oral dose 20 mg, geometric mean, read-out: Observed Cmax, ss

# compound, Cmax
records = [
    ("CCN1C(=O)N(c2c(F)c(OC)cc(OC)c2F)Cc2cnc3[nH]c(CN4CCOCC4)cc3c21 [Pemigatinib]", "380 nM"),
]
